# Test system: Human α2δ-1 Subunit of Cav2.2 Calcium Channel (Homo sapiens, UniProt P54289)
# Sequence (P54289 25-1103): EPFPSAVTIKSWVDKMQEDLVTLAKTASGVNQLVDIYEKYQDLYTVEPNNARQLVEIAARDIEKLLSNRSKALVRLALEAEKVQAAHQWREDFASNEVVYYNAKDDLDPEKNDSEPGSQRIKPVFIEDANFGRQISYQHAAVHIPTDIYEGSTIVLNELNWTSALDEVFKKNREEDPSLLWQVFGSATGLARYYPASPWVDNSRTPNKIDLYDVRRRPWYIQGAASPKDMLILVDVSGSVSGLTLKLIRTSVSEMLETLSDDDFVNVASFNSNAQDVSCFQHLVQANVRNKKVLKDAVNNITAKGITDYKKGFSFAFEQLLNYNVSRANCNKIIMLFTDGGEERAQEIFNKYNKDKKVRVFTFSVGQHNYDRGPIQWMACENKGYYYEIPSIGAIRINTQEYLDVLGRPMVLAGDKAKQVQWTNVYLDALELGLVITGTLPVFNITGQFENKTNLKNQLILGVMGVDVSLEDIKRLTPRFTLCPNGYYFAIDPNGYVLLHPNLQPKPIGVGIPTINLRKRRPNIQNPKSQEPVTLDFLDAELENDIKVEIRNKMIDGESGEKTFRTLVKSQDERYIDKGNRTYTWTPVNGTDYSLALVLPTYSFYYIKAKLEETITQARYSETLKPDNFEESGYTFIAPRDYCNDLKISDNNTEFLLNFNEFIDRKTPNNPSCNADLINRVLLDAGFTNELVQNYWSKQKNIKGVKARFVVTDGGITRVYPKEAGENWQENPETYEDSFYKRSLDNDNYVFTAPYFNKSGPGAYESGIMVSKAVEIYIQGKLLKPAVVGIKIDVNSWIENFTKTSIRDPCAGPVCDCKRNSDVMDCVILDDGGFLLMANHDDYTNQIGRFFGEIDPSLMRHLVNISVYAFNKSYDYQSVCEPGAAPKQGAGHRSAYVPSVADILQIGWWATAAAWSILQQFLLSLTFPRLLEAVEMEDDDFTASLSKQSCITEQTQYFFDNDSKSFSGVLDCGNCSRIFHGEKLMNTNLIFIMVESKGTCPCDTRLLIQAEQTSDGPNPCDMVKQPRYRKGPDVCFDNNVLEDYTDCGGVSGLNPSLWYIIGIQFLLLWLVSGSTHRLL
# Assay notes: biochemical
# Type: binding
# Test parameters: read-out: Ki (nM) alpha2delta Hum
Test readout: Ki

[[record]]
compound = "CNCCC(Oc1ccc(CN2CCN(C)CC2)cc1)c1cccs1 (centres unmarked)"
result = "> 3000 nM"

[[record]]
compound = "CNCCC(Oc1cccc(C(=O)N2CCN(C)CC2)c1)c1cccs1 (centres unmarked)"
result = "> 3000 nM"

[[record]]
compound = "CNCCC(Oc1cccc(C(=O)N2CCOCC2)c1)c1ccccc1 (centres unmarked)"
result = "> 3000 nM"

[[record]]
compound = "CNCCC(Oc1cccc(N2CCCCC2=O)c1)c1cccs1 (centres unmarked)"
result = "> 3000 nM"

[[record]]
compound = "CNCCC(Oc1cccc(N2CCCCC2=O)c1)c1ccccc1 (centres unmarked)"
result = "> 3000 nM"

[[record]]
compound = "CNCCC(OCc1cccc(N2CCN(C)CC2=O)c1)c1ccccc1 (centres unmarked)"
result = "> 3000 nM"

[[record]]
compound = "CNCCC(OCc1cccc(N2CCN(C)CC2)c1)c1ccccc1 (centres unmarked)"
result = "500 to 3000 nM"

[[record]]
compound = "CNCC[C@H](Oc1ccc(CN2CCc3ccccc3C2=O)cc1)c1cccs1"
result = "500 to 3000 nM"

[[record]]
compound = "CNCCC(OCc1ccc(N2CCC(c3ccccc3)(N(C)C)CC2)cc1)c1cccs1 (centres unmarked)"
result = "> 3000 nM"

[[record]]
compound = "CNCCC(Oc1cccc(C(=O)N2CCN(C)CC2)c1)c1ccccc1 (centres unmarked)"
result = "> 3000 nM"

[[record]]
compound = "CNCCC(Oc1cccc(-n2nc(C)cc2C)c1)c1ccccc1 (centres unmarked)"
result = "> 3000 nM"

[[record]]
compound = "CC[C@]1(N2CCN(Cc3cccc(CO[C@H](CCNC)c4ccccc4)c3)CC2)CCOC(C)(C)C1"
result = "500 to 3000 nM"

[[record]]
compound = "CNCCC(Oc1cccc(CN2C[C@@H](C)N[C@@H](C)C2)c1)c1cccs1 (some centres unmarked)"
result = "500 to 3000 nM"

[[record]]
compound = "CNCC[C@@H](OCc1cccc(CN2CCN([C@]3(C(=O)c4ccccn4)CCOC(C)(C)C3)CC2)c1)c1ccccc1"
result = "500 to 3000 nM"


The measured values listed here are drawn from patent US20200270237A1.
